- Tested on: SK-MEL-28 melanoma
- procedure.details: NCI tumour cell line growth inhibition, 48 h
assay.endpoint: TGI

• COc1nc2c(c(=O)[nH]1)N=C(c1ccc([N+](=O)[O-])cc1)CC(c1ccccc1)N2 (stereo not drawn) = > 100 µM
• CCN(CC)c1ccc(C=C2C(=O)NC(=S)NC2=O)cc1 = 5.1 µM
• C[C@@H](NC(=O)Nc1cccc(C(=O)Nc2cc(C(C)(C)C)ccc2C(=O)O)n1)c1ccccc1 = > 100 µM
• C/C(=C/C(=O)N(C)c1ccccc1Cl)O[Si](C(C)C)(C(C)C)C(C)C = > 100 µM
• O=c1cc(O)c1=O = > 100 µM

Would you be so kind as to report TGI for each listed record?
1. CCCCCCCCCCCCNC(=O)N[C@H](C(=O)N[C@H]1/C=C/OCCNC(=O)/C=C/[C@H](C(C)C)NC1=O)C(C)C
2. O=C(CNC(=O)c1cccc2ccccc12)Nc1ccccc1Oc1ccc(O)cc1
3. C/C(=N\NC(N)=S)c1ccc(Oc2ccccc2)cc1

Reply |
26.2 µM
> 25 µM
33.2 µM

###

- Test system: SK-MEL-28 melanoma
- procedure.details: NCI tumour cell line growth inhibition, 48 h
Kindly supply the reported TGI values for the records listed here.

// worked examples, TGI included
- COc1cc(C(=O)N[C@@H]2CCCN(C)C2)ccc1Nc1ncc2c(n1)N(C1CCCC1)CC(C)(C)C(=O)N2C: 2.04 µM
- COC(=O)C#CC1(O)C=CC(=O)C=C1: 1.67 µM
- COc1ccc2nc3cc(Cl)ccc3c(NCCCN(C)CCCNc3ccc4ncn5c6ccccc6c(=O)c3c45)c2c1: 7.38 µM

Would you be so kind as to report TGI for each listed record?
1. N#Cc1nc(CCC(C(=O)O)N2C(=O)c3ccccc3C2=O)oc1N (stereo not given)
2. COC(=O)[C@]1(CCC(C)=O)C(=O)C=CN([C@H](C)c2ccccc2)[C@@H]1Cc1ccc(OC)c(OCc2ccccc2)c1I

Reply |
1. > 100 µM
2. > 100 µM

Would you be so kind as to report TGI for each listed record?
1. CC1(C)OC(COP2OCCO2)[C@H](COP2OCCO2)O1 (stereo not given in full)
2. C/C(=C\COP(=O)(O)CP(=O)(O)O)CC/C=C(\C)CNc1ccccc1
3. NS(=O)(=O)c1ccc(NNc2c3ccccc3nc3c(C(=O)Nc4ccc(S(N)(=O)=O)cc4)cccc23)cc1
4. Cc1cc(Br)ccc1N=NC1C(=O)ON=C1c1ccccc1 (stereo not given)
5. N#CCC1CCN(c2nc(Nc3ccc(N4CCC(O)CC4)cc3)c3c(=O)[nH]ncc3n2)CC1

Reply |
1. > 100 µM
2. > 100 µM
3. > 100 µM
4. > 100 µM
5. > 100 µM

###

- Tested on: OVCAR-8 ovarian
- procedure.details: NCI tumour cell line growth inhibition, 48 h
Where a SMILES comes first, the peptide text is derived from it. The star is where a group is joined. Boc = CC(C)(C)OC(=O)*; OtBu = CC(C)(C)O*
Kindly supply the reported TGI values for the records listed here.

// worked examples, TGI included
• CC(C)(C)OC(=O)CC(NC(=O)OC(C)(C)C)C(=O)NC(Cc1ccccc1)C(N)=O (centres undefined) (Boc-Asp(OtBu)-Phe-NH2; configuration not given here) = > 100 µM
• O=C(CC1(O)C(=O)Nc2ccc(Br)cc21)c1cccc([N+](=O)[O-])c1 (centres undefined) = > 100 µM
• C=C1C(=O)O[C@H]2[C@H]1CC/C(COC(=O)NCc1ccc(Cn3c(=O)sn(CCCI)c3=O)cc1)=C\CC[C@@]1(C)O[C@@H]21 = 9.87 µM
• Cc1cccc2c(=O)c3cccc(CC(=O)O)c3oc12 = > 100 µM
• NC(C(=O)O)C(O)c1cnc[nH]1 (centres undefined) = > 100 µM
• N#Cc1cccc(C2SCc3nc4ccccc4n32)c1 (centres undefined) = > 100 µM
• CC(C)c1cc(C(C)C)c(S(=O)(=O)N/N=C2\CC3CCC2(C)C3(C)C)c(C(C)C)c1 (centres undefined) = > 100 µM
• COc1cc(Nc2nc(NS(=O)(=O)c3cc(C)c(Cl)cc3S)n[nH]2)cc(OC)c1OC = > 100 µM
• COC(=O)c1c(C(=O)OC)c2ccccn2c1-c1cc(C)cc2c1C(=O)C=CC2=O = 14.4 µM
• O=C(CNC(=O)c1cccc2ccccc12)Nc1ccccc1Oc1ccc(O)cc1 = > 25 µM

Would you be so kind as to report TGI for each listed record?
1. N/C(=N\O)c1cn(C2OC(CO)C(O)C2O)c2ncnc(N)c12 (centres undefined)
2. CC1(C)CCC(c2ccc(Cl)cc2)=C(CN2CCN(c3ccc(C(=O)NS(=O)(=O)c4ccc(N[C@H](CCN5CCOCC5)CSc5ccccc5)c(S(=O)(=O)C(F)(F)F)c4)cc3)CC2)C1

Reply |
2.59 µM
5.18 µM

Would you be so kind as to report TGI for each listed record?
1. COc1cc(C(=O)N[C@@H]2CCCN(C)C2)ccc1Nc1ncc2c(n1)N(C1CCCC1)CC(C)(C)C(=O)N2C
2. CCCCc1c2c([n+]([O-])c3c1CCCC3)CCCC2

Reply |
16.8 µM
> 100 µM

Would you be so kind as to report TGI for each listed record?
1. COc1cc(Br)c(C2OCCCO2)cc1OCc1ccccc1
2. BrC(/C=N/Nc1nnc(-c2ccccc2)c(-c2ccccc2)n1)C(Br)c1ccccc1 (centres undefined)

Reply |
> 100 µM
> 100 µM

###

- System: SNB-19 CNS
- procedure.details: NCI tumour cell line growth inhibition, 48 h
assay.endpoint: log10 of TGI (log10 of the value in µM)
In our notation, the value equals log10 of TGI in µM.

// worked examples, log10 of TGI included
- CCCN1CCCC(c2ccc(Nc3nc(Nc4cc(F)ccc4C(N)=O)c4cc[nH]c4n3)c(OC)c2)C1 (stereo not given): 0.81
- CC(=O)[O-].O=C([CH-]C(=O)c1ccccc1)c1ccccc1.O=C([CH-]C(=O)c1ccccc1)c1ccccc1.[Dy+3]: 1.85
- O[C@@H]1CCCCN1Cc1cc2cc3c(cc2c2cc(OCc4ccccc4)ccc12)OCO3: 0.56
- COc1cc(/C=C2\C(=O)Nc3ccc(O)cc32)cc(OC)c1OC: 1.61
- CCOC(=O)n1c(=O)nc2c3c(ncn21)Oc1c(c(-c2ccccc2)nn1-c1ccccc1)C3c1ccc(Cl)cc1 (stereo not given): 0.47
- O=P(c1ccccc1)(c1ccccc1)C1CC=C2CCCCCC2C1 (stereo not given): 1.91
- NC1=Nc2cc(OCCCCN3Cc4ccccc4C3)c(OCC3CC3)cc2C12CCCC2: 1.09
- CC(=O)Nc1ccc(S(=O)(=O)N2C(=O)CCC2C(=O)Nc2ccccc2)cc1 (stereo not given): 1.28

Would you be so kind as to report log10 of TGI for each listed record?
1. O=C(c1ccco1)c1c(C(F)(F)F)n([O-])c2cc(Cl)c(Cl)cc2[n+]1=O
2. O=C(/C=C/c1c[nH]c2ccccc12)c1ccccc1O
3. COC(=O)c1c(O)ccc2c1c1c(n2CCc2ccccc2)C(=O)c2ccccc2C1
4. O=c1c2cc(F)ccc2sc2c(NCCCNCCO)nc3ccc(F)cc3c12

Reply |
[1.17, 1.56, 1.92, 0.52]

###

- Test system: K-562 leukemia
- procedure.details: NCI tumour cell line growth inhibition, 48 h; in the data active = GI50 below about 0.43 µM; inactive = the rest
Would you mind answering with one of these outcomes? yes = active, no = inactive

Here are 8 compounds together with their reported answers.
- CCCN1CCCC(c2ccc(Nc3nc(Nc4cc(F)ccc4C(N)=O)c4cc[nH]c4n3)c(OC)c2)C1 (stereo not given): no
- NC1=Nc2cc(OCCCCN3Cc4ccccc4C3)c(OCC3CC3)cc2C12CCCC2: yes
- N=C(N)c1ccc(-c2ccc(-c3cccs3)s2)cc1F: yes
- C=C(CN1CCc2ccccc2C1)c1ccc(C(=O)Nc2cccc(N)c2)cc1: no
- COc1ncc(-c2ccc3nc(N)n(-c4ccccc4C(F)(F)F)c(=O)c3c2)cc1S(=O)(=O)Nc1ccc(F)cc1F: no
- COc1cc(/C=C2\C(=O)Nc3ccc(O)cc32)cc(OC)c1OC: no
- COc1cccc(-c2cc(-c3ccc(Nc4nc(Nc5ccc(Cl)cc5)nc(Nc5ccc(Cl)cc5)n4)cc3)nc(N)c2C#N)c1: no
- CCC[CH2][Sn]1([CH2]CCC)[O]C(=O)c2cccnc2[S]1: no

Ask | # outcome recorded in this test, key = C=C(C)[C@@H]1CC[C@]2(C(=O)OC)CC[C@]3(C)[C@H](CC[C@@H]4[C@@]5(C)CC/C(=N\OCCC(=NCCC#N)NOCCC#N)C(C)(C)[C@@H]5CC[C@]43C)[C@@H]12
Reply | no

Ask | # outcome recorded in this test, key = CN(C)CCCn1c2c(c3ccc(N4CCNCC4)cc3c1=O)C(=O)c1ccccc1-2
Reply | no

Taken from PubChem BioAssay (NCI).
